// provenance: ChEMBL document CHEMBL1201862

- System: M19-MEL
- Protocol Notes: NCI tumour cell line growth inhibition, 48 h
Activity calls are given as the source filed them. No stated cut-off is given here; in the data, active = GI50 up to about 1.1 µM and inactive = higher.
Assay Endpoint: GI50

Worked set:
{"Molecule": "C=CC1(C)CC(=O)C2(O)C(C)(O1)C(OC(C)=O)C(O)C1C(C)(C)CCC(O)C12C (stereo not given)", "Assay Endpoint": "GI50", "Reported Value": "104 µM (inactive)"}
{"Molecule": "COc1ccc(/C=C/C(=O)c2c(-c3ccccc3)nn(C)c(=O)c2N2CCOCC2)cc1", "Assay Endpoint": "GI50", "Reported Value": "> 100 µM (inactive)"}
{"Molecule": "Cc1nc2ccccc2c(=O)n1/N=C(\\N=N\\c1ccccc1Cl)c1ccccc1", "Assay Endpoint": "GI50", "Reported Value": "25.8 µM (inactive)"}
{"Molecule": "c1ccc(-c2nnc(-c3nn(-c4ccccc4)c4nc5ccccc5nc34)o2)cc1", "Assay Endpoint": "GI50", "Reported Value": "47.8 µM (inactive)"}
{"Molecule": "Cn1cnc([N+](=O)[O-])c1Sc1nc2ccccc2s1", "Assay Endpoint": "GI50", "Reported Value": "11.5 µM (inactive)"}
{"Molecule": "CC1=CC(=O)N2[C@H](OC[C@@H]2C(C)C)O1", "Assay Endpoint": "GI50", "Reported Value": "> 100 µM (inactive)"}

// for each molecule in input: emit GI50
1. CC1(C)Cc2c(C#N)c(N)c3c(c2CO1)C(=O)OC3=O
2. NNC(=O)/C(NC(=O)c1ccccc1)=C(\N)c1ccc(Cl)cc1
3. Cc1ccccc1-c1c(N)nc(N)nc1C(=O)Nc1nccs1

1. > 100 µM (inactive)
2. > 100 µM (inactive)
3. > 100 µM (inactive)

I would be grateful if you could share the reported GI50 for O=C(O)CCC(NC(=O)c1ccc(Nc2nc3cc(C(F)(F)F)ccc3nc2-c2ccccc2)cc1)C(=O)O (stereo not given) .
> 100 µM (inactive)
